# tested_system: Serine protease 1 (Rattus norvegicus)
# Sequence (P00762 whole entry): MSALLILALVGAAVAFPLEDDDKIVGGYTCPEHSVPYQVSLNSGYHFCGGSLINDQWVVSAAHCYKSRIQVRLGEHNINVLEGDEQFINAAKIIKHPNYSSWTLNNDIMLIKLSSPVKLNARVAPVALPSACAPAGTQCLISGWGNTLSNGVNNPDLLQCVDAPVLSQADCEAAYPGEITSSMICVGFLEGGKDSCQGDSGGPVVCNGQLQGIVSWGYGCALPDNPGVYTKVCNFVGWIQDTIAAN
Measured Ki accompanies every entry in the list below.
Use nM as the unit, but write only the number.

Study these solved cases before continuing.
| smiles_structure | unit_text | Ki |
| --- | --- | --- |
| N=C(N)c1ccc(CNC(=O)[C@H](CCCN=C(N)N)NC(=O)[C@@H](CO)NS(=O)(=O)Cc2ccccc2)cc1 | nM | 7 |
| N=C(N)c1ccc(CNC(=O)CNC(=O)[C@@H](CO)NS(=O)(=O)Cc2ccncc2)cc1 | nM | 410 |
| N=C(N)c1ccc(CNC(=O)CNC(=O)[C@@H](CO)NS(=O)(=O)Cc2cccc(C(=O)O)c2)cc1 | nM | 720 |

Q) Fill in: Ki of N=C(N)c1ccc(CNC(=O)CNC(=O)[C@@H](CO)NS(=O)(=O)Cc2ccc(CN)cc2)cc1 is ___
A) 280
